Measured cAMP release, % activity with respect to control, at 10 µM of individual entries
experimental.system: human GLP-1 receptor (human, UniProt P43220 24-463)
protocol.notes: cell-based or functional assay
Where no end group is shown, it is not given here. [ ]: non-standard residue; d: D form. Bip(2'-Et-4'-OMe) = CCc1cc(OC)ccc1-c1ccc(C[C@H](N)C(=O)O)cc1; αMePhe(2,6-F2) = C[C@](N)(Cc1c(F)cccc1F)C(=O)O; αMePhe(2-F) = C[C@](N)(Cc1ccccc1F)C(=O)O; αMeBip(OMe) = alpha-methylated Bip(OMe); hhPhe = N[C@@H](CCCc1ccccc1)C(=O)O; αMeD = C[C@](N)(CC(=O)O)C(=O)O; αMeP = C[C@@]1(C(=O)O)CCCN1; αMeAPPA = not defined here; αMeS = C[C@](N)(CO)C(=O)O; Aib = CC(C)(N)C(=O)O

Give its cAMP release, % activity with respect to control, at 10 µM value. Item: VH[Aib]QGTFTSD[αMeBip(OMe)][hhPhe]-NH2 [Seq. ID. No. 7]
99 % of control

What would you report for VH[Aib]EGT[αMePhe(2,6-F2)]TS[αMeD][αMeBip(OMe)][hhPhe] (not fully specified (C-terminus)) [Seq. ID. No. 79] ?
99 % of control

What would you report for VH[αMeP]EGT[αMePhe(2-F)]T[αMeS][αMeD][Bip(2'-Et-4'-OMe)][αMeAPPA] (not fully specified (C-terminus); reading uncertain) [Seq. ID. No. 122] ?
99 % of control

What would you report for VVH[Aib]QGTFTSD[αMeBip(OMe)][hhPhe] (not fully specified (C-terminus); printed as VVH-Aib-QGTFTSD-(αMe-Bip(OMe))-(APPA)) [Seq. ID. No. 207] ?
98 % of control

What would you report for VHSQGT[αMePhe(2,6-F2)]TS[αMeD][αMeBip(OMe)][αMeAPPA] (not fully specified (C-terminus); reading uncertain) [Seq. ID. No. 197] ?
99 % of control
